Molecular target: Retinaldehyde dehydrogenase 3 (Homo sapiens) (UniProt P47895)
Test: qHTS for Inhibitors of the Aldehyde Dehydrogenase Family (ALDH1A3) Primary screen (AID 2061315);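 also: plate controls were DMSO vehicle for no effect and reference inhibitor for full effect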
Details: ALDH inhibition qHTS; series mostly up to 56 µM
Results filed as inconclusive are left out. Activity calls are given as the source filed them. Calls follow the shape of the dose curve; as a rule, active = well fitted inhibition curve with a large enough effect; inconclusive = small, poorly fitted or top-dose-only effect; inactive = no such curve, though single readings can be large or run the other way.
readoutName: activity change, negative = inhibition

[[record]]
compound = "C=CC(C)(O)CC[C@@H]1[C@@]2(C)CCCC(C)(C)C2CC[C@@]1(C)O (stereo partly specified)"
assayvalue = "inactive"

[[record]]
compound = "Cc1ncc([N+](=O)[O-])n1CC(O)CN1CCOCC1 (stereo unspecified)"
assayvalue = "inactive"

[[record]]
compound = "C/C=C(/C)C(=O)OC1CC(C)(C)CC2C3=CCC4C5(C)CCC(O[C@@H]6O[C@H](C(=O)O)[C@@H](O)[C@H](O)[C@H]6O[C@@H]6O[C@H](CO)[C@H](O)[C@H](O[C@@H]7OC[C@H](O)[C@H](O)[C@H]7O[C@@H]7O[C@H](CO)[C@@H](O)[C@H](O)[C@H]7O)[C@H]6O)C(C)(C)C5CCC4(C)C3(C)C(O)C(O)C12CO (stereo partly specified)"
assayvalue = "-6.72% [at 11.2 µM] (inactive)"

[[record]]
compound = "c1cc(OCCCN2CCCCC2)ccc1CN1CCCCC1"
assayvalue = "inactive"

[[record]]
compound = "CC1CC[C@]2(C(=O)O)CC[C@]3(C(=O)O)C(=CCC4[C@@]5(C)CC[C@H](O[C@@H]6O[C@H](CO)[C@@H](O)[C@H](O)[C@H]6O)C(C)(C)C5CC[C@]43C)C2C1C (stereo partly specified)"
assayvalue = "inactive"

[[record]]
compound = "COc1ccc(-c2nc(-c3cc(C(F)(F)F)cc(C(F)(F)F)c3)n(Cc3ccc(C(N)=O)cc3)c2-c2ccc(OC)cc2)cc1"
assayvalue = "inactive"


----------
Target: Cellular tumor antigen p53 (Homo sapiens) (UniProt P04637)
Sequence (P04637 whole entry, looked up): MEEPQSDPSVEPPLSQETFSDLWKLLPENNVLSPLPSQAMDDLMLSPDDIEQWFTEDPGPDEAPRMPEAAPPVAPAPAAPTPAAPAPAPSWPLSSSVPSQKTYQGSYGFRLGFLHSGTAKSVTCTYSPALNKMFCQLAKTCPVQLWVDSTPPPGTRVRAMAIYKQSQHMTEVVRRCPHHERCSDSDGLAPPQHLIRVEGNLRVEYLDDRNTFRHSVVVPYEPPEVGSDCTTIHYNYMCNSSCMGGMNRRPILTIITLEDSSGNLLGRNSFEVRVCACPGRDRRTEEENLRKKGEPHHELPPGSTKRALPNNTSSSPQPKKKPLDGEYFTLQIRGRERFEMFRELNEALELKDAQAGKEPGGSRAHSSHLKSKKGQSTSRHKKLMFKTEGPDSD
Assay: Primary qHTS for small molecule compounds that upregulate eGFP-tagged delta133p53alpha (in N-terminal) cells. (AID 2060322);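 also: cells pre-induced with doxycycline then dosed without doxycycline; 0% = DMSO vehicle and 100% = reference activator; nearly all actives have a fitted effect of over 75% in size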
Settings: NCI-H358 eGFP-delta133p53alpha fluorescence, 24 h; active compounds read high
Inconclusive results are not listed. The source made the active and inactive calls. Calls follow the shape of the dose curve; as a rule, active = well fitted activation curve with a large enough effect; inconclusive = small, poorly fitted or top-dose-only effect; inactive = no such curve, though single readings can be large or run the other way.
readoutName: activation

[[record]]
compound = "CC(=O)C12OC(C)(C)OC1CC1C3CCC4=CC(=O)C=CC4(C)C3(F)C(O)CC12C (configuration not stated)"
readoutname = "activation"
assayvalue = "-9.67% (inactive)"

[[record]]
compound = "CC1(C)CC[C@]2(C(=O)O[C@@H]3O[C@H](CO)[C@@H](O)[C@H](O)[C@H]3O)CC[C@]3(C)C(=CCC4[C@@]5(C)CC[C@H](O[C@@H]6O[C@H](C(=O)O)[C@@H](O[C@@H]7O[C@H](CO)[C@@H](O)[C@H](O)[C@H]7O)[C@H](O)[C@H]6O)C(C)(C)C5CC[C@]43C)C2C1 (some centres not stated)"
readoutname = "activation"
assayvalue = "-26.7% (inactive)"

[[record]]
compound = "Cn1cc(C(=O)OCC2CCN(CCNS(C)(=O)=O)CC2)c2ccccc21"
readoutname = "activation"
assayvalue = "-16.5% (inactive)"

[[record]]
compound = "Cc1ccc(NC(=O)c2ccc(CN3CCN(C)CC3)cc2)cc1Nc1nc(-c2cccnc2)cs1"
readoutname = "activation"
assayvalue = "4.59% (inactive)"

[[record]]
compound = "CC(C)c1ccc(NC(=O)Cn2cnc3c2c(=O)n(C)c(=O)n3C)cc1"
readoutname = "activation"
assayvalue = "-14.8% (inactive)"

[[record]]
compound = "CC(C)=CCC/C(C)=C/CC/C(C)=C/C(=O)OCC(=O)[C@@]1(O)CC[C@H]2[C@@H]3CCC4=CC(=O)C=C[C@]4(C)[C@H]3[C@@H](O)C[C@@]21C"
readoutname = "activation"
assayvalue = "-21.8% (inactive)"

[[record]]
compound = "Cc1cccc(C)c1NC(=O)c1ccc(N)cc1"
readoutname = "activation"
assayvalue = "-2.82% (inactive)"


----------
Molecular target: Retinal dehydrogenase 2 (Homo sapiens)
Assay: qHTS for Inhibitors of the Aldehyde Dehydrogenase Family (ALDH1A2) Confirmation screens (AID 2061314); also: nearly all actives have a fitted effect of over 65% in size
Settings: ALDH1A2 enzyme inhibition qHTS confirmation; series mostly up to 45.9 µM
Records with an inconclusive call do not appear. Activity calls are given as the source filed them. Calls come from the whole dose curve; as a rule, active = well fitted inhibition curve with a large enough effect; inconclusive = small, poorly fitted or top-dose-only effect; inactive = no such curve, though single readings can be large or run the other way. Residues, ends and D or L forms follow the SMILES beside them. *: point of attachment. Cbz = O=C(OCc1ccccc1)*; CH2Cl = ClC*
Outcomes: label 1 (active), label 0 (inactive)

[[record]]
compound = "CCOC(=O)N1CCC(CN(Cc2ccc(Cl)cc2)Cc2ccc([N+](=O)[O-])s2)C1 (stereo not given)"
grouplabel = "label 0"

[[record]]
compound = "CC(C)C[C@H](NC(=O)CNC(=O)OCc1ccccc1)C(=O)N[C@@H](Cc1ccccc1)C(=O)CCl (Cbz-Gly-Leu-Phe-CH2Cl)"
grouplabel = "label 1"

[[record]]
compound = "O=C(CCCCCCC(=O)Nc1ccccc1)NO"
grouplabel = "label 0"

[[record]]
compound = "CC1(C)O[C@@]2(C)CC[C@@H]1C[C@@H]2OC1OC(CO)C(O)C(O)C1O (stereo not given in full)"
grouplabel = "label 0"

[[record]]
compound = "Cc1cccc(-n2cnc3cc(C(=O)N4CCCC(C)(C)C4)ccc32)c1"
grouplabel = "label 0"

[[record]]
compound = "Cc1cc(Cn2cnc3c2C[C@@H](C(=O)O)N(C(=O)C(c2ccccc2)c2ccccc2)C3)ccc1N"
grouplabel = "label 0"

[[record]]
compound = "O=C(CCl)Nc1cccc(NC2=NS(=O)(=O)c3ccccc32)c1"
grouplabel = "label 1"

[[record]]
compound = "Cc1nnc(-c2cnn(C)c2N)n1CCCn1ccnc1"
grouplabel = "label 0"

[[record]]
compound = "O=C(c1ccc(-c2cnc3c(O)cccc3c2)cc1)N1CCNCC1"
grouplabel = "label 0"

[[record]]
compound = "Cc1cc2c(s1)c(C=O)c(C(=O)NCc1ccccc1F)n2C"
grouplabel = "label 0"


----------
Biological target: Retinaldehyde dehydrogenase 3 (Homo sapiens)
Experiment: qHTS for Inhibitors of the Aldehyde Dehydrogenase Family (ALDH1A3) Confirmatory screens (AID 2061311); also: nearly all actives have a fitted effect of over 60% in size
Details: ALDH inhibition qHTS; series mostly up to 46 µM
Inconclusive results are not listed. Calls of active or inactive are those of the source. The call rests on the fitted dose curve; in most records, active means well fitted inhibition curve with a large enough effect; inconclusive means small, poorly fitted or top-dose-only effect; inactive means no such curve, though single readings can be large or run the other way.
Outcomes: active, inactive

[[record]]
compound = "N#Cc1cc(C2=Nc3ccc(Br)cc3NC(=O)C2)ccn1"
grouplabel = "inactive"

[[record]]
compound = "C=CC(=O)N1CCN(C(=O)CNc2cc(I)c(Cl)cc2O)CC1"
grouplabel = "active"

[[record]]
compound = "Cc1cc(-c2nnc3n2CCCCC3)c(C)n1-c1ccccn1"
grouplabel = "active"

[[record]]
compound = "CC(C)c1ccc2c(c1)CCC1[C@](C)(C(=O)O)CCC[C@]21C (stereo not given in full)"
grouplabel = "inactive"

[[record]]
compound = "C[C@H]1[C@H](/C=C/c2ccc(-c3ccccc3C#N)cn2)[C@@H]2[C@@H](C)OC(=O)[C@@H]2C[C@@H]1C"
grouplabel = "inactive"


----------
Assay: BET inhibitor-based combinations targeting novel dependencies in MECOM-rearranged (r) AML: MV-4-11 cell line (AID 2202233); also: nearly all actives have a fitted effect of over 45% in size
Conditions: MV-4-11 AML viability, CellTiter-Glo luminescence, 48 h; series mostly up to 46 µM
Records with an inconclusive call do not appear. Active and inactive are the calls of the source. Calls come from the whole dose curve; as a rule, active = well fitted inhibition curve with a large enough effect; inconclusive = small, poorly fitted or top-dose-only effect; inactive = no such curve, though single readings can be large or run the other way. Positions of bridges follow the written chain, without caps; N, C: chain ends. Non-standard residues stand in square brackets, D forms with d. Residues, ends and D or L forms follow the SMILES beside them. *: point of attachment. X1 = CCC(C)C(N)C1=NC(C(=O)*)CS1; dOrn = NCCC[C@@H](N)C(=O)O
Outcomes: active, inactive

[[record]]
compound = "CCC(C)N(C)C(=O)c1cc2ccccc2c(-c2ccccc2Cl)n1 (stereo unspecified)"
grouplabel = "inactive"

[[record]]
compound = "Nc1nc(F)nc2c1ncn2[C@@H]1O[C@H](CO)[C@@H](O)[C@@H]1O"
grouplabel = "active"

[[record]]
compound = "CC1CCC(n2c3cnccc3c3cnc(Nc4ccc5c(n4)CCN(C(=O)CO)C5)nc32)CC1 (stereo unspecified)"
grouplabel = "active"

[[record]]
compound = "CCCCCNC(=O)N1CCC(CN(Cc2ccc(Cl)cc2)Cc2ccc([N+](=O)[O-])s2)C1 (stereo unspecified)"
grouplabel = "active"

[[record]]
compound = "Cn1cncc1C(N)(c1ccc(Cl)cc1)c1ccc2c(c1)c(-c1cccc(Cl)c1)cc(=O)n2C (stereo unspecified)"
grouplabel = "active"

[[record]]
compound = "O=c1[nH]c([C@@H]2CCCN2)nc2c1oc1ccc(Cl)cc12"
grouplabel = "active"

[[record]]
compound = "CN(C)C/C=C/C(=O)Nc1ccc(C(=O)Nc2cccc(Nc3ncc(Cl)c(-c4c[nH]c5ccccc45)n3)c2)cc1"
grouplabel = "active"

[[record]]
compound = "Cn1cc(-c2cnn3c(N)c(Br)c([C@@H]4CCCNC4)nc23)cn1"
grouplabel = "active"

[[record]]
compound = "CC(C)C[C@H](NC(=O)[C@@H](NC(=O)c1cccc(-c2ccccc2)n1)[C@@H](C)O)B(O)O"
grouplabel = "active"

[[record]]
compound = "COC1CCC(N(C(=O)C2CCC(C)CC2)c2cc(C3=CCCCC3)sc2C(=O)O)CC1 (stereo unspecified)"
grouplabel = "inactive"

[[record]]
compound = "CCc1cc(-c2n[nH]c(C)c2-c2ccc3c(c2)OCCO3)c(O)cc1O"
grouplabel = "active"

[[record]]
compound = "O=C(CCl)Nc1cccc(NC2=NS(=O)(=O)c3ccccc32)c1"
grouplabel = "active"

[[record]]
compound = "O=c1[nH]nc(Sc2ncc([N+](=O)[O-])s2)n1-c1ccc2c(c1)OCCO2"
grouplabel = "active"

[[record]]
compound = "CNC(=O)c1ccc(N2C(=S)N(c3cnc(C#N)c(C(F)(F)F)c3)C(=O)C23CCC3)cc1F"
grouplabel = "inactive"

[[record]]
compound = "OC(Cn1cncn1)(Cn1cncn1)c1ccc(F)cc1F"
grouplabel = "inactive"

[[record]]
compound = "CC1Cc2ccccc2N1NC(=O)c1ccc(Cl)c(S(N)(=O)=O)c1 (stereo unspecified)"
grouplabel = "inactive"

[[record]]
compound = "CNC(=O)c1ccccc1Nc1nc(Nc2ccc(N3CCOCC3)cc2OC)ncc1Cl"
grouplabel = "active"

[[record]]
compound = "S=c1nc[nH]c2nc[nH]c12"
grouplabel = "active"

[[record]]
compound = "O=C1NC(=O)C(c2ccccc2[N+](=O)[O-])=C1Nc1ccc(O)c(Cl)c1"
grouplabel = "active"

[[record]]
compound = "CC(C)c1nn(-c2c(Cl)cccc2Cl)c2nc(Cc3ccc(OCCO)cc3)[nH]c(=O)c12"
grouplabel = "active"

[[record]]
compound = "Cc1[nH]c(/C=C2\\C(=O)Nc3ccc(S(=O)(=O)N(C)c4cccc(Cl)c4)cc32)c(C)c1C(=O)N1CCN(C)CC1"
grouplabel = "active"

[[record]]
compound = "O=C1NC(=O)C(c2cnc3ccccn23)=C1c1cn2c3c(cccc13)CN(C(=O)N1CCOCC1)CC2"
grouplabel = "active"

[[record]]
compound = "CCN(c1ccccc1)c1cc(NC)[n+](C)c(C)n1"
grouplabel = "inactive"

[[record]]
compound = "CC(C)c1c2cc(-c3ccnc(NC4CCC(NC5CCOCC5)CC4)n3)ccc2nn1C (stereo unspecified)"
grouplabel = "active"

[[record]]
compound = "CS(=O)(=O)c1ccc(C(=O)Nc2ccc(Cl)c(-c3ccccn3)c2)c(Cl)c1"
grouplabel = "inactive"

[[record]]
compound = "CC1CCN(c2cc(N3CCN(C)CC3)ccc2NC(=O)c2cc(C#N)c[nH]2)CC1"
grouplabel = "active"

[[record]]
compound = "CCC(C)C(N)C1=NC(C(=O)N[C@@H](CC(C)C)C(=O)N[C@H](CCC(=O)O)C(=O)N[C@H](C(=O)N[C@H]2CCCCNC(=O)[C@H](CC(N)=O)NC(=O)[C@@H](CC(=O)O)NC(=O)[C@H](Cc3cnc[nH]3)NC(=O)[C@@H](Cc3ccccc3)NC(=O)[C@H]([C@@H](C)CC)NC(=O)[C@@H](CCCN)NC2=O)[C@@H](C)CC)CS1 (stereo partly specified) (X1-L[dE]IK[dOrn]I[dF]H[dD]N; lactam 4-C)"
grouplabel = "inactive"

[[record]]
compound = "CN1CCN(CCCN2c3ccccc3Sc3ccc(C(F)(F)F)cc32)CC1"
grouplabel = "active"

[[record]]
compound = "O=C(O)[C@H](O)[C@@H](O)[C@H](O[C@@H]1O[C@H](CO)[C@H](O)[C@H](O)[C@H]1O)[C@H](O)CO"
grouplabel = "inactive"

[[record]]
compound = "CC/C(=C(\\c1ccccc1)c1ccc(OCCN(C)C)cc1)c1ccccc1"
grouplabel = "active"

[[record]]
compound = "Cn1cc(-c2ccc3c(c2)CCN3C(=O)Cc2cccc(C(F)(F)F)c2)c2c(N)ncnc21"
grouplabel = "active"

[[record]]
compound = "CCC(=O)O[C@]1(C(=O)SCF)[C@H](C)C[C@H]2[C@@H]3C[C@H](F)C4=CC(=O)C=C[C@]4(C)[C@@]3(F)[C@@H](O)C[C@@]21C"
grouplabel = "inactive"

[[record]]
compound = "C1COC(NC(C2CC2)C2CC2)=N1"
grouplabel = "inactive"

[[record]]
compound = "COc1cc2c(Oc3ccc(-c4cnc(Nc5ccc(F)cc5)n(C)c4=O)cc3F)ccnc2cc1OCCCN1CCOCC1"
grouplabel = "active"

[[record]]
compound = "COc1ccc(S(=O)(=O)Nc2cccnc2Nc2ccc(O)cc2)cc1"
grouplabel = "active"

[[record]]
compound = "CC1(C)CC(=O)c2c(C(F)(F)F)nn(-c3ccc(C(N)=O)c(NC4CCC(OC(=O)CN)CC4)c3)c2C1 (stereo unspecified)"
grouplabel = "active"


These data points were gathered from PubChem BioAssay (NCATS).
